- target: KinA/Spo0F (sporulation kinase A/sporulation initiation phosphotransferase F) (Bacillus subtilis (strain 168), UniProt P06628+P16497)
- experiment.notes: Inhibition of autophosphorylation of the two-component signal transduction system kinase was measured using the KinA/Spo0F regulatory system of Bacillus subtilis.
- Assay type: functional
Threshold check on IC50: strictly below 50 µM is Y; on or above 50 µM is N.

Query: Quick check: does COc1cc(OC)c(O)c(C(=O)Nc2cc(Cl)c(C(C#N)c3ccc(Cl)cc3)cc2C)c1 (stereo not given) have IC50 under 50 µM?
Reply: N

Query: Hello, is IC50 of the following compound strictly smaller than 50 µM? Cc1cc(C(C#N)c2ccc(Cl)cc2)c(Cl)cc1NC(=O)c1cc(Cl)ccc1O (stereo not given)
Reply: N

Query: Strictly below 50 µM in IC50? Cc1cc(C(C#N)c2ccc(Cl)cc2)c(Cl)cc1NC(=O)c1cc(C(C)(C)C)cc(C(C)(C)C)c1O (stereo not given)
Reply: N

Query: Hello, is IC50 of the following compound strictly smaller than 50 µM? O=C(Nc1ccc(Cl)c(Cl)c1)c1cc(C(F)(F)F)cc(C(F)(F)F)c1O
Reply: Y

Query: Please check: IC50 for O=C(Nc1ccc(Cl)c(Cl)c1)c1cc(I)cc(I)c1O , strictly under 50 µM or not?
Reply: Y

Query: Please indicate whether the reported IC50 of O=C(Nc1ccc(Cl)cc1)c1cc(Cl)cc(Cl)c1O is strictly below 50 µM.
Reply: N

Query: Is it true that IC50 reported for Cc1cc(C(=O)c2ccc(Cl)cc2)c(Cl)cc1NC(=O)c1cc(I)cc(I)c1O is less than 50 µM?
Reply: N

Query: IC50 strictly < 50 µM for this compound? Cc1cc(C(C#N)c2ccc(Cl)cc2)c(Cl)cc1NC(=O)c1cc(C(F)(F)F)cc(C(F)(F)F)c1O (stereo not given)
Reply: Y

Query: Is IC50 of Cc1cc(C(C#N)c2ccc(Cl)cc2)c(Cl)cc1NC(=O)c1cc(C(F)(F)F)ccc1O (stereo not given) strictly below 50 µM?
Reply: Y
